Tested on: Escherichia coli TOP10
Experiment: shrunken log2 fold change of peptide-encoding DNA abundance (4.5 h post-induction vs induction); higher = less antimicrobial activity (less host growth inhibition)
Conditions: time post-induction: 4.5 h; library: site-saturation at positions 5, 18, 19, 20
Each record's class is read off its shrunken log2 fold change using these ranges: lo (below -0.08), mid (-0.08 to below 0.1), hi (0.1 or more)

{"columns": ["Sequence", "Target Or Test System", "Label Value"],
 "data": [
  ["RRIRRRPPRLPRPRPRPPAYPRP", "Escherichia coli TOP10", "hi"],
  ["RRIRERPPRLPRPRPRPHVTPRP", "Escherichia coli TOP10", "lo"],
  ["RRIRPRPPRLPRPRPRPIHPPRP", "Escherichia coli TOP10", "hi"],
  ["RRIRDRPPRLPRPRPRPHNNPRP", "Escherichia coli TOP10", "lo"],
  ["RRIRQRPPRLPRPRPRPGMAPRP", "Escherichia coli TOP10", "mid"],
  ["RRIRSRPPRLPRPRPRPNLVPRP", "Escherichia coli TOP10", "mid"],
  ["RRIRYRPPRLPRPRPRPWFGPRP", "Escherichia coli TOP10", "lo"],
  ["RRIRFRPPRLPRPRPRPVRDPRP", "Escherichia coli TOP10", "hi"],
  ["RRIRCRPPRLPRPRPRPGTVPRP", "Escherichia coli TOP10", "lo"],
  ["RRIRTRPPRLPRPRPRPFCIPRP", "Escherichia coli TOP10", "lo"],
  ["RRIRERPPRLPRPRPRPFDWPRP", "Escherichia coli TOP10", "mid"],
  ["RRIRFRPPRLPRPRPRPYDPPRP", "Escherichia coli TOP10", "mid"],
  ["RRIRWRPPRLPRPRPRPRVAPRP", "Escherichia coli TOP10", "hi"],
  ["RRIRFRPPRLPRPRPRPMHMPRP", "Escherichia coli TOP10", "mid"],
  ["RRIRRRPPRLPRPRPRPTYKPRP", "Escherichia coli TOP10", "lo"],
  ["RRIRWRPPRLPRPRPRPLTLPRP", "Escherichia coli TOP10", "mid"],
  ["RRIRIRPPRLPRPRPRPGRHPRP", "Escherichia coli TOP10", "mid"],
  ["RRIRFRPPRLPRPRPRPAMQPRP", "Escherichia coli TOP10", "hi"],
  ["RRIRIRPPRLPRPRPRPHCGPRP", "Escherichia coli TOP10", "mid"],
  ["RRIRMRPPRLPRPRPRPRHGPRP", "Escherichia coli TOP10", "hi"],
  ["RRIRMRPPRLPRPRPRPHYHPRP", "Escherichia coli TOP10", "lo"],
  ["RRIRGRPPRLPRPRPRPFKWPRP", "Escherichia coli TOP10", "mid"],
  ["RRIRIRPPRLPRPRPRPFLIPRP", "Escherichia coli TOP10", "lo"],
  ["RRIRKRPPRLPRPRPRPPWVPRP", "Escherichia coli TOP10", "hi"],
  ["RRIRKRPPRLPRPRPRPSEWPRP", "Escherichia coli TOP10", "hi"],
  ["RRIRARPPRLPRPRPRPMVRPRP", "Escherichia coli TOP10", "hi"]
]}

* * *

Test system: Escherichia coli TOP10
Test: shrunken log2 fold change of peptide-encoding DNA abundance (4.5 h post-induction vs induction); higher = less antimicrobial activity (less host growth inhibition)
Conditions: time post-induction: 4.5 h; library: site-saturation at positions 5, 18, 19, 20

{"columns": ["Sequence", "shrunken log2 fold change"],
 "data": [
  ["RRIRSRPPRLPRPRPRPSRAPRP", 0.281],
  ["RRIRPRPPRLPRPRPRPNCEPRP", 0.117],
  ["RRIRIRPPRLPRPRPRPNVWPRP", -0.309],
  ["RRIRNRPPRLPRPRPRPWHMPRP", -0.0135],
  ["RRIRVRPPRLPRPRPRPNVHPRP", -0.546],
  ["RRIRERPPRLPRPRPRPLDMPRP", -0.16],
  ["RRIRFRPPRLPRPRPRPKTFPRP", -0.18],
  ["RRIRVRPPRLPRPRPRPLDEPRP", -0.0276],
  ["RRIRERPPRLPRPRPRPNVHPRP", -0.344]
]}

* * *

Test system: Escherichia coli TOP10
Experiment: shrunken log2 fold change of peptide-encoding DNA abundance (4.5 h post-induction vs induction); higher = less antimicrobial activity (less host growth inhibition)
Settings: time post-induction: 4.5 h; library: site-saturation at positions 5, 18, 19, 20
Each entry below carries its recorded shrunken log2 fold change.
Readout Kind: shrunken log2 fold change

{"columns": ["Sequence", "Value Measured"],
 "data": [
  ["RRIRMRPPRLPRPRPRPDMPPRP", -0.0178],
  ["RRIRWRPPRLPRPRPRPEWHPRP", 0.595],
  ["RRIRQRPPRLPRPRPRPFRVPRP", -0.153],
  ["RRIRMRPPRLPRPRPRPIKNPRP", 0.387],
  ["RRIRDRPPRLPRPRPRPQSTPRP", -0.466],
  ["RRIRSRPPRLPRPRPRPVRYPRP", 0.0544],
  ["RRIRWRPPRLPRPRPRPEVEPRP", -0.016],
  ["RRIRQRPPRLPRPRPRPNHVPRP", 0.0349],
  ["RRIRHRPPRLPRPRPRPVIAPRP", -0.134],
  ["RRIRRRPPRLPRPRPRPPKKPRP", 1.12],
  ["RRIRRRPPRLPRPRPRPLKGPRP", -0.0966],
  ["RRIRDRPPRLPRPRPRPCCIPRP", 0.168],
  ["RRIRMRPPRLPRPRPRPLNMPRP", -0.0641],
  ["RRIRPRPPRLPRPRPRPECNPRP", -0.0298],
  ["RRIRPRPPRLPRPRPRPWYQPRP", -0.0967],
  ["RRIRDRPPRLPRPRPRPHSSPRP", 0.217],
  ["RRIRPRPPRLPRPRPRPFYYPRP", -0.838],
  ["RRIRARPPRLPRPRPRPHRDPRP", 0.0774],
  ["RRIRERPPRLPRPRPRPDMEPRP", -0.201],
  ["RRIRHRPPRLPRPRPRPVKEPRP", -0.00992],
  ["RRIRCRPPRLPRPRPRPFDQPRP", -0.136],
  ["RRIRYRPPRLPRPRPRPMAKPRP", -0.0343],
  ["RRIRIRPPRLPRPRPRPNWVPRP", -0.231],
  ["RRIRYRPPRLPRPRPRPVERPRP", 0.00806],
  ["RRIRFRPPRLPRPRPRPIYYPRP", -1.24],
  ["RRIRYRPPRLPRPRPRPMDRPRP", -0.0498],
  ["RRIRERPPRLPRPRPRPYGQPRP", -0.315],
  ["RRIRQRPPRLPRPRPRPDDFPRP", -0.0929],
  ["RRIRVRPPRLPRPRPRPYLRPRP", -0.165],
  ["RRIRHRPPRLPRPRPRPHMGPRP", -0.238]
]}

* * *

Tested on: Escherichia coli TOP10
Assay: shrunken log2 fold change of peptide-encoding DNA abundance (4.5 h post-induction vs induction); higher = less antimicrobial activity (less host growth inhibition)
Details: time post-induction: 4.5 h; library: site-saturation at positions 5, 18, 19, 20
Readout Kind: shrunken log2 fold change

{"columns": ["Sequence", "Value Measured"],
 "data": [
  ["RRIRTRPPRLPRPRPRPDQYPRP", -0.0122],
  ["RRIRCRPPRLPRPRPRPGILPRP", -0.233],
  ["RRIRTRPPRLPRPRPRPQRAPRP", 0.265],
  ["RRIRARPPRLPRPRPRPSKRPRP", 0.0155]
]}

* * *

Test system: Escherichia coli TOP10
Experiment: shrunken log2 fold change of peptide-encoding DNA abundance (4.5 h post-induction vs induction); higher = less antimicrobial activity (less host growth inhibition)
Conditions: time post-induction: 4.5 h; library: site-saturation at positions 5, 18, 19, 20
Readout Kind: shrunken log2 fold change

{"columns": ["Sequence", "Value Measured"],
 "data": [
  ["RRIRKRPPRLPRPRPRPDNTPRP", -0.0368],
  ["RRIRDRPPRLPRPRPRPLSGPRP", -0.0838],
  ["RRIRSRPPRLPRPRPRPWPEPRP", 0.519],
  ["RRIRLRPPRLPRPRPRPQIEPRP", -0.155],
  ["RRIRERPPRLPRPRPRPTAMPRP", 0.109]
]}

* * *

System: Escherichia coli TOP10;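 note: peptides expressed intracellularly from a pBAD plasmid library in pooled LB shake-flask culture, induced with 0.3% L-arabinose, DNA abundance read by NGS, three biological replicates, DESeq2 with apeglm shrinkage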
Assay: shrunken log2 fold change of peptide-encoding DNA abundance (4.5 h post-induction vs induction); higher = less antimicrobial activity (less host growth inhibition)
Conditions: time post-induction: 4.5 h; library: site-saturation at positions 5, 18, 19, 20
Hi, to clarify the labels: yes covers shrunken log2 fold change from 0.08 upward, no covers anything below 0.08.

{"columns": ["Sequence", "Label Value"],
 "data": [
  ["RRIRPRPPRLPRPRPRPQSDPRP", "no"],
  ["RRIRGRPPRLPRPRPRPWVRPRP", "yes"],
  ["RRIRHRPPRLPRPRPRPICNPRP", "no"],
  ["RRIRGRPPRLPRPRPRPMWGPRP", "no"],
  ["RRIRPRPPRLPRPRPRPCCHPRP", "no"],
  ["RRIRMRPPRLPRPRPRPGTSPRP", "yes"],
  ["RRIRERPPRLPRPRPRPFFCPRP", "no"],
  ["RRIRGRPPRLPRPRPRPCYVPRP", "no"],
  ["RRIRGRPPRLPRPRPRPLLDPRP", "yes"],
  ["RRIRFRPPRLPRPRPRPTQFPRP", "yes"],
  ["RRIRMRPPRLPRPRPRPWGSPRP", "no"],
  ["RRIRCRPPRLPRPRPRPIDEPRP", "no"],
  ["RRIRWRPPRLPRPRPRPEANPRP", "yes"],
  ["RRIRTRPPRLPRPRPRPEQFPRP", "no"],
  ["RRIRCRPPRLPRPRPRPNSCPRP", "no"],
  ["RRIRHRPPRLPRPRPRPSVIPRP", "no"],
  ["RRIRGRPPRLPRPRPRPMGIPRP", "no"],
  ["RRIRKRPPRLPRPRPRPMQGPRP", "no"],
  ["RRIRRRPPRLPRPRPRPRRVPRP", "yes"],
  ["RRIRLRPPRLPRPRPRPFYSPRP", "no"],
  ["RRIRGRPPRLPRPRPRPCYRPRP", "no"],
  ["RRIRWRPPRLPRPRPRPYQMPRP", "no"],
  ["RRIRSRPPRLPRPRPRPNGSPRP", "no"],
  ["RRIRPRPPRLPRPRPRPVQSPRP", "yes"],
  ["RRIRIRPPRLPRPRPRPRLMPRP", "no"],
  ["RRIRKRPPRLPRPRPRPSLTPRP", "no"],
  ["RRIRKRPPRLPRPRPRPEGCPRP", "yes"],
  ["RRIRVRPPRLPRPRPRPVSFPRP", "no"],
  ["RRIRSRPPRLPRPRPRPGTFPRP", "no"],
  ["RRIRQRPPRLPRPRPRPGANPRP", "yes"],
  ["RRIRSRPPRLPRPRPRPFPHPRP", "no"],
  ["RRIRFRPPRLPRPRPRPVHRPRP", "no"],
  ["RRIRRRPPRLPRPRPRPRKMPRP", "yes"],
  ["RRIRDRPPRLPRPRPRPRPHPRP", "yes"],
  ["RRIRQRPPRLPRPRPRPGPKPRP", "no"],
  ["RRIRDRPPRLPRPRPRPWDAPRP", "yes"],
  ["RRIRARPPRLPRPRPRPCICPRP", "no"]
]}
